# ASSAY_TEXT: Therapeutic ratio by Peroral dose of administration (quotient ED50 catalepsy/ED50 climbing)
# Format: ADME, organism-based
# CONDITION_DESCRIPTION: in vivo, po; read-out: Therapeutic ratio
RECORDED_METRIC: selectivity ratio
Numbers only.

compound `CN1CCN(C2=Nc3ccccc3Oc3ccc(OS(=O)(=O)C(F)(F)F)cc32)CC1` , selectivity ratio observed: 21.5

---

# ASSAYED_SYSTEM: D(4) dopamine receptor (Homo sapiens)
# Sequence (P21917 whole entry): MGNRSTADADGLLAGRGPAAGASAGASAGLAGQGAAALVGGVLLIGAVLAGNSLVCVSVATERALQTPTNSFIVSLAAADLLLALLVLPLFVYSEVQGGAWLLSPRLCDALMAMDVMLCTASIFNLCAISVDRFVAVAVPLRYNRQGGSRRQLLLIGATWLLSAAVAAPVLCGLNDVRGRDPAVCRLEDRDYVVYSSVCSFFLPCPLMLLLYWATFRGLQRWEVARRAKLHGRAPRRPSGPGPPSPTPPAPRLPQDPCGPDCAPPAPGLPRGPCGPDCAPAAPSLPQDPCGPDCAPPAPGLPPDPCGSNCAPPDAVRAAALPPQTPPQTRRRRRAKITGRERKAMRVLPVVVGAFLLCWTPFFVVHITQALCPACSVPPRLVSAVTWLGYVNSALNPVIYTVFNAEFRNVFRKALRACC
# ASSAY_TEXT: Compound was tested in vitro for its binding affinity towards human Dopamine receptor D4.2
RECORDED_METRIC: IC50 (µM)
One number for each entry, in µM.

compound `CN1CCN(C2=Nc3ccccc3Oc3ccc(Cl)cc32)CC1` , IC50 observed: 0.014

---

# ASSAYED_SYSTEM: Muscarinic acetylcholine receptor M1 (Homo sapiens, UniProt P11229)
# Sequence (P11229 whole entry): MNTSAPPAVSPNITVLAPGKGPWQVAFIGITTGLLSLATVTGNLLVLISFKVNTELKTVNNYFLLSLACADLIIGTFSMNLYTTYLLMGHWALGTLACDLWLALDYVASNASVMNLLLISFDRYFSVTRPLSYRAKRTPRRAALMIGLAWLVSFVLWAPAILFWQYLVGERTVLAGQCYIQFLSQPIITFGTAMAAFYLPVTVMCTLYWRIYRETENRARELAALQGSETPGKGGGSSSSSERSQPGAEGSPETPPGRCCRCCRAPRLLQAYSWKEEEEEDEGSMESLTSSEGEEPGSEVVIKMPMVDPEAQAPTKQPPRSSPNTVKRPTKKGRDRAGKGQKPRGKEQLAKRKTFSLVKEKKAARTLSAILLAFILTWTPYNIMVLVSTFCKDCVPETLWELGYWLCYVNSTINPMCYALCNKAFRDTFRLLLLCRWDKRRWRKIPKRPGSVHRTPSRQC
# ASSAY_TEXT: Inhibition of binding of 1.0 nM [3H]pirenzepine to cloned human Muscarinic acetylcholine receptor M1 expressed in membranes from CHO-K1 cells
RECORDED_METRIC: IC50

Known IC50 results, listed for orientation:
CN1CCN(C2=Nc3ccccc3Oc3ccc(Cl)cc32)CC1    5500 nM
CN1CCN(C2=Nc3ccccc3Oc3ccc(OS(=O)(=O)C(F)(F)F)cc32)CC1    490 nM
CN1CCN(C2=Nc3cc(Cl)ccc3Nc3ccc(OS(=O)(=O)C(F)(F)F)cc32)CC1    54 nM
CN1CCN(C2=Nc3ccccc3Sc3ccc(OS(=O)(=O)C(F)(F)F)cc32)CC1    460 nM

Each molecule below has a reported value. Please supply its IC50.
1. CN1CCN(C2=Nc3cc(OS(C)(=O)=O)ccc3Nc3ccccc32)CC1
2. CN1CCN(C2=Nc3ccccc3Nc3ccc(OS(=O)(=O)C(F)(F)F)cc32)CC1

38 nM
> 1000 nM

---

# System: Rattus norvegicus
# ASSAY_TEXT: Compound is measured for inhibition of catalepsy in rat by peroral administration of compound
# Type: functional
# CONDITION_DESCRIPTION: po
RECORDED_METRIC: ED50 (mg/kg)
One number for each entry, in mg/kg.

CN1CCN(C2=Nc3ccccc3Oc3ccc(OS(=O)(=O)C(F)(F)F)cc32)CC1    28

In the following, a different compound is considered.
compound `O=C(CCCN1CCC(O)(c2ccc(Cl)cc2)CC1)c1ccc(F)cc1` , ED50 observed: 1.5

Ref: ChEMBL document CHEMBL1132638
